# System: L1210 leukemia ip in BDF1 mice, survival T/C
# test-protocol: NCI In Vivo Anticancer Drug Screen. Data for tumor model L1210 Leukemia (intraperitoneal) in B6D2F1 (BDF1) mice
# condition-description: endpoint: mean survival time; dose: 75.0 mg/kg/injection; schedule: Q01DX001 (ip); vehicle: saline; higher = longer survival
Inconclusive results and toxic doses are left out.
measurement-kind: T/C

Here's what some known entries look like.
compound	T/C
CC(=O)C(C#N)c1c(C)cc(C)cc1C (stereo not given)	97 % of control
CCCCCSc1nc(N)nc2nc[nH]c12	106 % of control
CCCCNc1ccc(C(=O)OCCNC2CCCCC2)cc1	100 % of control
Cc1ccc(S(=O)(=O)OCC23CCC2(COS(=O)(=O)c2ccc(C)cc2)COC3)cc1 (stereo not given)	96 % of control
OC(CCCNc1ccccc1)CCCNc1ccccc1	96 % of control

Query: What measured T/C goes with CCCCN(CCCC)C(=S)[S-].CCCCN(CCCC)C(=S)[S-].[Zn] ?
Result: 88 % of control

Query: Next compound: C=C1C(=O)OCC1C(=O)O (stereo not given)
Result: 98 % of control

Query: Query COc1ccc(-n2cc3c(=O)nccc-3c3ccccc32)cc1OC next
Result: 95 % of control

Query: Then CCCCC(=O)NC1=C(Cl)C(=O)c2ccccc2C1=O ?
Result: 89 % of control

Query: // query: Cc1cc(C)c(C(=O)OC(c2ccccc2)C(c2ccccc2)N2CCOCC2)c(C)c1 (stereo not given)
Result: 96 % of control
